Values compiled from paper PMC3329556.

- Substrate: NC(=O)c1ccc[n+]([C@@H]2O[C@H](COP(=O)(O)OP(=O)(O)OC[C@H]3O[C@@H](n4cnc5c(N)ncnc54)[C@H](O)[C@@H]3O)[C@@H](O)[C@H]2O)c1
- test.summary: radiometric HPLC assay, initial rates, Michaelis-Menten fit
- Assay type: biochemical, Bos taurus
- experimental.conditions: 10 mM potassium phosphate pH 7.4, 37°C, 14C-labelled NAD+ tracer
- Excerpt: radiometric HPLC assay, initial rates, Michaelis-Menten fit on bCD38 (bovine CD38/NAD+glycohydrolase)
Would you mind telling me the reported kcat/Km of each entry?
Write it as a number; the unit M⁻¹ s⁻¹ goes unstated.

// kcat/Km lookup, key: bCD38 (bovine CD38/NAD+glycohydrolase) (Bos taurus; E218Q) (protein, soluble ecto-domain residues 32-278 (first 31 residues removed), alpha-factor secretion signal, Pichia pastoris GS115 or X33, mono-N-glycosylated at Asn201, back-to-back homodimer in crystal) YKWHYSGLNRWHGAGSTADFQKIIQERCDTYTQTIRPGSRSRNCQAIRQAFMSAFISKDPCKATKEDYNSLINLAPPTVPCGQQVFWSKTKELAHEYAKRRRLMTLEDTLLGYLADGLRWCGEPGSSDLNIWSCPDWRKDCRTNYLSVFWEVLSERFAESACNTVRVVLNGSLENAFDSMSIFGRVQAPNLRPQVELEAWLVHDTGKPPSDSCSGSSIRKLKSILDGRNVKFRCMDNLSRDQFLQRS
1210

Now the protein bCD38 (bovine CD38/NAD+glycohydrolase) (Bos taurus; K120A) (protein, soluble ecto-domain residues 32-278 (first 31 residues removed), alpha-factor secretion signal, Pichia pastoris GS115 or X33, mono-N-glycosylated at Asn201, back-to-back homodimer in crystal) YKWHYSGLNRWHGAGSTADFQKIIQERCDTYTQTIRPGSRSRNCQAIRQAFMSAFISKDPCKATKEDYNSLINLAPPTVPCGQQVFWSATKELAHEYAKRRRLMTLEDTLLGYLADGLRWCGEPGSSDLNIWSCPDWRKDCRTNYLSVFWEVLSERFAESACNTVRVVLNGSLENAFDSMSIFGRVEAPNLRPQVELEAWLVHDTGKPPSDSCSGSSIRKLKSILDGRNVKFRCMDNLSRDQFLQRS
1.7e+06

Note, next up: bCD38 (bovine CD38/NAD+glycohydrolase) (Bos taurus; W168A) (protein, soluble ecto-domain residues 32-278 (first 31 residues removed), alpha-factor secretion signal, Pichia pastoris GS115 or X33, mono-N-glycosylated at Asn201, back-to-back homodimer in crystal) YKWHYSGLNRWHGAGSTADFQKIIQERCDTYTQTIRPGSRSRNCQAIRQAFMSAFISKDPCKATKEDYNSLINLAPPTVPCGQQVFWSKTKELAHEYAKRRRLMTLEDTLLGYLADGLRWCGEPGSSDLNIWSCPDARKDCRTNYLSVFWEVLSERFAESACNTVRVVLNGSLENAFDSMSIFGRVEAPNLRPQVELEAWLVHDTGKPPSDSCSGSSIRKLKSILDGRNVKFRCMDNLSRDQFLQRS
800000
